Where these numbers come from: ChEMBL document CHEMBL1201862

- Test system: SK-OV-3
- protocol.notes: NCI tumour cell line growth inhibition, 48 h
The source made the active and inactive calls. Rule as the data show it: active = GI50 up to about 1.1 µM and inactive = higher. Starred links: 1 amine or outer side, 2 acyl side, 3 side chain; linkers in the order of their positions; H or OH if unused. Positions of bridges follow the written chain, without caps; N, C: chain ends. Non-standard residues stand in square brackets, D forms with d. Residues, ends and D or L forms follow the SMILES beside them. Chains are numbered I, II in the order given. Actinocin(9to1) = Cc1c2oc3c(C)ccc(C(=O)[*:1])c3nc-2c(C(=O)[*:2])c(N)c1=O; NMeF = CN[CH](Cc1ccccc1)C(=O)O; Sar = CNCC(=O)O
Tick one outcome: active, inactive

Consider the worked cases shown below.
Ask: Any idea what this test logged for Cc1c2oc3c(C)ccc(C(=O)NC4C(=O)NC(C(C)C)C(=O)N5CCCC5C(=O)N(C)CC(=O)N(C)C(Cc5ccccc5)C(=O)OC4C)c3nc-2c(C(=O)NC2C(=O)NC(C(C)C)C(=O)N3CCCC3C(=O)N(C)CC(=O)N(C)C(Cc3ccccc3)C(=O)OC2C)c(N)c1=O (stereo not drawn) (I: TVP[Sar][NMeF] / II: TVP[Sar][NMeF]; ester I:1-I:C, II:1-II:C; linker I:N-II:N via Actinocin(9to1); configuration not given here) ?
Reply: active

Ask: Any idea what this test logged for `CCN(CC)CCCNc1ccc2nnn3c4ccc(O)cc4c(=O)c1c23` ?
Reply: inactive

Ask: Any idea what this test logged for `COc1ccc(/C=C/C(=O)C(C)C)cc1` ?
Reply: inactive

Ask: Any idea what this test logged for `CN(CCCNC(=O)c1cn(C)c2c1ccc1cc(Cl)ccc12)CCCNC(=O)c1cn(C)c2c1ccc1cc(Cl)ccc12` ?
Reply: inactive

Ask: Any idea what this test logged for `COC(Cc1cc(C(O)(c2ccc(C(C)(C)C)cc2)c2cc(CC(OC)(c3cc(C(OC)(c4ccc(C(C)(C)C)cc4)c4ccc(C(C)(C)C)cc4)c(C)cc3C)c3cc(C(OC)(c4ccc(C(C)(C)C)cc4)c4ccc(C(C)(C)C)cc4)c(C)cc3C)c(C)cc2C)c(C)cc1C)(c1cc(C(OC)(c2ccc(C(C)(C)C)cc2)c2ccc(C(C)(C)C)cc2)c(C)cc1C)c1cc(C(OC)(c2ccc(C(C)(C)C)cc2)c2ccc(C(C)(C)C)cc2)c(C)cc1C` ?
Reply: inactive

Ask: Any idea what this test logged for `COc1cc(OC)c2c(O)c(S(=O)(=O)c3ccc(C)cc3)c(=O)oc2c1` ?
Reply: inactive

Ask: Any idea what this test logged for `COc1ccc(/C(C)=N/OC(=O)c2c(-c3ccccc3Cl)noc2C)cc1CN1CCOCC1` ?
Reply: inactive

Ask: Any idea what this test logged for `C[C@H]1CC[C@@]2(NC1)O[C@H]1C[C@H]3[C@@H]4CC[C@H]5C[C@@H](O)CC[C@]5(C)[C@H]4CC[C@]3(C)[C@H]1[C@@H]2C` ?
Reply: inactive

Further cases:
Ask: Any idea what this test logged for Fc1cc2nc3n(c2cc1F)C(c1c(F)cccc1F)SC3 (stereo not drawn) ?
Reply: inactive

Ask: Any idea what this test logged for `CCCC(=O)Nc1cc([N+](=O)[O-])c([N+](=O)[O-])cc1OC` ?
Reply: inactive

---

- Tested on: HOP-18
- protocol.notes: NCI tumour cell line growth inhibition, 48 h
The source made the active and inactive calls. Cut-off read from the data, not from the text of the source: active = GI50 up to about 1.1 µM and inactive = higher.
Tick one outcome: YES = active, NO = inactive

Consider the worked cases shown below.
Ask: Any idea what this test logged for `CN(C)CCNC(=O)c1cc([N+](=O)[O-])cc2ccc(-c3ccccc3)nc12` ?
Reply: NO

Ask: Any idea what this test logged for `Cc1cc2c(C)n(Cc3ccccc3Cl)nc2c(C(=O)O)c1C` ?
Reply: NO

Ask: Any idea what this test logged for CC(=O)NC(CCCCN(Cc1ccccc1)C(=O)NCCCl)C(=O)NCc1ccccc1 (stereo unspecified) ?
Reply: NO

Ask: Any idea what this test logged for COC1CC2C3/C(=N/Nc4ccc([N+](=O)[O-])cc4[N+](=O)[O-])CCC2(C)C3C1 (stereo unspecified) ?
Reply: NO

Ask: Any idea what this test logged for `CN(C)CCNC(=O)c1cccc2nc3c4ccccc4c4ccccc4c3nc12` ?
Reply: NO

Ask: Any idea what this test logged for `Cc1cc2c(=O)cc(-c3ccc(Cl)cc3Cl)oc2c(C(=O)O)c1C` ?
Reply: NO

Further cases:
Ask: Any idea what this test logged for `Cc1nc(N)nc(CCC(=O)Nc2cccc(C(F)(F)F)c2)c1-c1ccc(Cl)cc1` ?
Reply: NO

Ask: Any idea what this test logged for COC1OC2COC(c3ccccc3)OC2C(O)C1Br (stereo unspecified) ?
Reply: NO

Ask: Any idea what this test logged for O=C1CC2Sc3ccccc3N=C2N1c1ccc(Cl)cc1Cl (stereo unspecified) ?
Reply: NO

Ask: Any idea what this test logged for `O=C(CCl)NNC1=Nc2ccc(Cl)cc2SC1` ?
Reply: NO

Ask: Any idea what this test logged for `CCOC(=O)NC(=O)c1cn(CCCCCCCCCCC(=O)N2CCN(CCn3cc(C(=O)NC(=O)OCC)c(=O)[nH]c3=O)CC2)c(=O)[nH]c1=O` ?
Reply: NO

Ask: Any idea what this test logged for Nc1ncnc2c1ncn2C1CC(OC2CCCCO2)C(CO)O1 (stereo unspecified) ?
Reply: NO

Ask: Any idea what this test logged for `O=Cc1ccccc1OCCOc1cc(OCCOc2ccccc2C=O)c(OCCOc2ccccc2C=O)cc1OCCOc1ccccc1C=O` ?
Reply: NO
